- Test system: RAW 264.7 cells
- experimental-details: Cytotoxicity on RAW 264.7 cells (CCK-8 method)
- Assay type: cell-based, mouse
- test-parameters: RAW 264.7, 0.5 μM
parameter-measured: Cell survival rate/% (%)
Write it as a number; the unit % goes unstated.

Look at this molecule and give its reported Cell survival rate/%. COc1cc2c(cc1OCc1ccccc1)C(CCc1c[nH]c3ccccc13)N(C=O)CC2 (stereo not drawn) 118.7

Same question for COc1cc2c(cc1OC)C(Cc1c[nH]c3ccccc13)N(CCS(C)(=O)=O)CC2 (stereo not drawn) please. 93.6

Same question for COc1cc2c(cc1OCC1CC1)[C@H](CCc1c[nH]c3cc(C)ccc13)N(C=O)CC2 [(S)-C4] please. 97.6

Same question for COc1cc2c(cc1OC1CCCC1)C(CCc1c[nH]c3ccccc13)N(C=O)CC2 (stereo not drawn) please. 111.6

Same question for COc1cc2c(cc1OC1CCCC1)C(CCc1c[nH]c3ccc(C)cc13)N(C=O)CC2 (stereo not drawn) please. 112.4

Same question for COc1cc2c(cc1OC)[C@H](CCc1c[nH]c3cc(C)ccc13)N(C=O)CC2 [(S)-C5] please. 98
